Target: UniProt:Q9NR97
Sequence (Q9NR97 27-1041): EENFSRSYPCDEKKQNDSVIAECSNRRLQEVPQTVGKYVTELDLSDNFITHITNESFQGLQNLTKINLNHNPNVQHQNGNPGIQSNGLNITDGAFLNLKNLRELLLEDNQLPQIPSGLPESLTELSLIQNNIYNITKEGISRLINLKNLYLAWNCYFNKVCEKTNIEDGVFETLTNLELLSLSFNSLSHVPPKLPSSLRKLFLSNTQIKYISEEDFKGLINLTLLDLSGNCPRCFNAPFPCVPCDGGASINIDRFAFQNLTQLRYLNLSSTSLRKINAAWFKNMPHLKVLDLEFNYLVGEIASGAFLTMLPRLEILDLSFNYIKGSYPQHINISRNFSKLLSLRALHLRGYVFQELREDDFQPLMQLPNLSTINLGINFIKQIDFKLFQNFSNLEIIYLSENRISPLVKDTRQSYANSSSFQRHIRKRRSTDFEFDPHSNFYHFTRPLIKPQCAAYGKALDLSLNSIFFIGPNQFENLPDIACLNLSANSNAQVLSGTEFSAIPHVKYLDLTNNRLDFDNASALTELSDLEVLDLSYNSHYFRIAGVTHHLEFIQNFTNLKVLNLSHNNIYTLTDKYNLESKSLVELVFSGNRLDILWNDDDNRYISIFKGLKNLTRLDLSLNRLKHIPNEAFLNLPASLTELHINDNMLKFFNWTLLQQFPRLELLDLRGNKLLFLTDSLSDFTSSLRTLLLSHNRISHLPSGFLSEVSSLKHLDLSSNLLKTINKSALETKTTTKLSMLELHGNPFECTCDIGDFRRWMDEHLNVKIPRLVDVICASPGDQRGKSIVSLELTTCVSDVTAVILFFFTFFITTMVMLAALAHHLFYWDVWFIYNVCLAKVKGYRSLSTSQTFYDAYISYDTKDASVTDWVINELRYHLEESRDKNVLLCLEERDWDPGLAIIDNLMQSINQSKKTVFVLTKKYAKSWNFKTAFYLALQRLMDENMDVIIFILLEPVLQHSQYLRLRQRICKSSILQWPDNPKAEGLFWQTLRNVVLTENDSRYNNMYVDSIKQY
Test: TLR8 inhibition reporter assay (HEK-Blue cells, SEAP reporter, R848 stimulation)
Conditions: HEK-Blue cells overexpressing human TLR8, SEAP reporter, R848 15.9 μM
experimentalEndpoint: IC50 (nM)

A. CCC(CC)CN1CCC(NC(=O)c2n[nH]c(-c3cc(C)c4ncnn4c3)c2C(C)C)CC1 [Example 79]
B. Cc1cc(-c2[nH]nc(C(=O)N[C@@H]3CCCNC3)c2C(C)C)cn2ncnc12 [Example 52]
Param pair: A , B . Output: the one whose IC50 is numerically greater. Refer to your chosen item by its label in the answer.
A

P. Cc1cc(-c2[nH]nc(C(=O)N3CCN(CCC#N)CC3)c2C(C)C)cn2ncnc12 [Example 19]
Q. Cc1cc(-c2[nH]nc(-c3ncc4c(n3)CCN(C3COC3)C4)c2C(C)C)cn2ncnc12 [Example 251]
Select one. Lower IC50: P or Q Answer = label.
Q
(Q: 2.68 nM, P: 12 nM)

----------
Target: human TLR7 (Homo sapiens, UniProt Q9NYK1)
Construct: host or cells: HEK-Blue cells
Sequence (Q9NYK1 27-1049): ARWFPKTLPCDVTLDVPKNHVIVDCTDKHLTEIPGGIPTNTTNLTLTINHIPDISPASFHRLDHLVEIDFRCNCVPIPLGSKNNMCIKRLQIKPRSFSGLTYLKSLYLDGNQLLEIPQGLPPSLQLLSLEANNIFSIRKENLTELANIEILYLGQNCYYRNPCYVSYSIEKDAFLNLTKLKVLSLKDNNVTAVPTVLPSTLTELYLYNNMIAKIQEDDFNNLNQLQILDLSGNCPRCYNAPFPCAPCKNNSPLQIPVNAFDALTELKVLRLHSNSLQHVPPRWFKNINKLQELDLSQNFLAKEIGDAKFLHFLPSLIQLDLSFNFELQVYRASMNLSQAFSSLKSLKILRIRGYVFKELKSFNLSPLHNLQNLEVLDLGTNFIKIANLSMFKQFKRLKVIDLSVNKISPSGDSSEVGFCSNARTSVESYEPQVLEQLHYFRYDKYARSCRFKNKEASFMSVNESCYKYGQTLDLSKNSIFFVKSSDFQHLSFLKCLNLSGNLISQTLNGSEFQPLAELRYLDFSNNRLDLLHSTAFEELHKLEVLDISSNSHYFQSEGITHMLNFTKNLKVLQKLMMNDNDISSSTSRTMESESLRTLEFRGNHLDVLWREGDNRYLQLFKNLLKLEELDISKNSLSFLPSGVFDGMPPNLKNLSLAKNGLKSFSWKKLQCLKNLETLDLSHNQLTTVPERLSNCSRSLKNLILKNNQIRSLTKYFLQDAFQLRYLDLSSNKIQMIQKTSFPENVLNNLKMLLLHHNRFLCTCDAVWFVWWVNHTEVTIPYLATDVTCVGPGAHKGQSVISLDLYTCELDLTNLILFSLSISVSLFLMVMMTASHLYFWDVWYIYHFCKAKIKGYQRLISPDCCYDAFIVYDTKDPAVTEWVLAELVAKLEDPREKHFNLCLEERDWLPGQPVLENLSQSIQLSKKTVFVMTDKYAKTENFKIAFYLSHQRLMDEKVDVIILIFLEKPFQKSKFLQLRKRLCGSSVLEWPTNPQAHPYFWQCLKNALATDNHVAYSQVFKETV
Test: TLR7 inhibition reporter assay (HEK-Blue cells, SEAP reporter, gardiquimod stimulation)
Type: cell-based
Conditions: HEK-Blue cells overexpressing human TLR7, SEAP reporter, gardiquimod 7.5 μM
experimentalEndpoint: IC50 (nM)

IC50 of COCCN1CCc2cc(-c3n[nH]c(-c4cc(C)c5ncnn5c4)c3C(C)C)ccc2C1 [Example 263] on human TLR7 (Homo sapiens, UniProt Q9NYK1)?
4.74

Would you mind doing Cc1cc(-c2[nH]nc(C3CCC(N4CCN(C)CC4)CC3)c2C(C)C)cn2ncnc12 (single isomer, unassigned) [Example 287] as well?
13.3

A. Cc1cc(-c2[nH]nc(C3CCC(N(C)C(=O)C4CN(C(C)C)C4)CC3)c2C(C)C)cn2ncnc12 (single isomer, unassigned) [Example 303]
B. Cc1cc(-c2[nH]nc(C(=O)NC3CCN(C(C)CS(C)(=O)=O)CC3)c2C(C)C)cn2ncnc12 (stereo not shown) [Example 174]
Please tell me which of the two, A or B , has the higher reported IC50 value. Answer with the label corresponding to your selection.
A
(A: 7.99 nM, B: 1.84 nM)

----------
Biological target: human TLR7 (Homo sapiens, UniProt Q9NYK1)
Assay: TLR7 inhibition reporter assay (HEK-Blue cells, SEAP reporter, gardiquimod stimulation)
Details: HEK-Blue cells overexpressing human TLR7, SEAP reporter, gardiquimod 7.5 μM
Description: TLR7/8/9 Inhibition Reporter Assays HEK-Blue™-cells (Invivogen) overexpressing human TLR7, TLR8 or TLR9 receptors were used for screening inhibitors of these receptors using an inducible SEAP (secreted embryonic alkaline phosphatase) reporter gene under the control of the IFN-β minimal promoter fused to five NF-κB and AP-1-binding sites. […]
experimentalEndpoint: IC50 (nM)

Return IC50 measured with human TLR7 (Homo sapiens, UniProt Q9NYK1) given this compound: CNC(=O)c1n[nH]c(-c2cc(C)c3ncnn3c2)c1C(C)C
29.7

Now the compound CCN(C)C1CCC(c2n[nH]c(-c3cc(C)c4ncnn4c3)c2C(C)C)CC1 (single isomer, unassigned) [Example 282]
29.8

Next up: Cc1cc(-c2[nH]nc(C3CCC(N(C)CC(=O)N(C)C)CC3)c2C(C)C)cn2ncnc12 (single isomer, unassigned) [compound 299]
1.42

Thanks! And Cc1cc(-c2[nH]nc(-c3cncc(N)c3)c2C(C)C)cn2ncnc12 ?
2.56

Further, for Cc1cc(-c2[nH]nc(-c3cccc(N(C)C)c3)c2C(C)C)cn2ncnc12 ?
2.6

Same again, this time with Cc1cc(-c2[nH]nc(C(=O)NC3CCNCC3)c2CC(F)(F)F)cn2ncnc12
0.9

And Cc1c(C(=O)NC2CCN(C)CC2)n[nH]c1-c1cc(C)c2ncnn2c1 ?
3.54

Also Cc1cc(-c2[nH]nc(C(=O)N[C@H]3CC[C@@H](NC(C)C)CC3)c2C(C)C)cn2ncnc12 ?
2.66

I. Cc1cc(-c2[nH]nc(-c3ccc(C4CCN(CC(C)(C)C)CC4)cc3)c2C(C)C)cn2ncnc12
II. COc1ncc(CN2CCC(NC(=O)c3n[nH]c(-c4cc(C)c5ncnn5c4)c3C(C)C)CC2)cn1
III. CCN1CCC(c2ccc(-c3n[nH]c(-c4cc(C)c5ncnn5c4)c3C(C)C)cc2)CC1
IV. COCC(C)N[C@H]1CC[C@H](NC(=O)c2n[nH]c(-c3cc(C)c4ncnn4c3)c2C(C)C)CC1 (stereo partly drawn)
Ascending sort, IC50. As an answer, provide the labels arranged in the order called for.
III, I, IV, II
(III: 1.45 nM, I: 9.47 nM, IV: 19.7 nM, II: 37.4 nM)

I. Cc1cc(-c2[nH]nc(C3CCC(N4CCOCC4)CC3)c2C(C)C)cn2ncnc12 (single isomer, unassigned) [Example 291]
II. COc1cc(-c2[nH]nc(-c3cnc(C4CCN(CC(=O)N(C)C)CC4)cn3)c2C(C)C)cn2ncnc12
Smaller IC50 value? Options are I and II Indicate which entry you chose by stating its label.
I
(I: 7.65 nM, II: 36.9 nM)

----------
Molecular target: human TLR7 (Homo sapiens)
Assay: TLR7 inhibition reporter assay (HEK-Blue cells, SEAP reporter, gardiquimod stimulation)
Settings: HEK-Blue cells overexpressing human TLR7, SEAP reporter, gardiquimod 7.5 μM
pIC50: −log10 of the molar value.
experimentalEndpoint: pIC50

Consider the reported pIC50 for these molecules:
# returns recorded pIC50 (system: human TLR7 (Homo sapiens)) for Cc1cc(-c2[nH]nc(-c3ccc(C4CCN(C(C)C)CC4)nc3)c2C(C)C)cn2ncnc12 [Example 361]
6.14

Ok, now CNC(=O)CN1CCC(c2cnc(-c3n[nH]c(-c4cc(OC)c5ncnn5c4)c3C(C)C)cn2)CC1 [Example 400]
7.87

Also Cc1cc(-c2[nH]nc(-c3ncc(C4CCN(C(C)C)CC4)cn3)c2C(C)C)cn2ncnc12 [Example 370] ?
7.91

Now consider Cc1cc(-c2[nH]nc(C(=O)NC3CCC(NC4(C)COC4)CC3)c2C(C)C)cn2ncnc12 (centres unmarked) [Example 124] and answer again.
8.11

P. CNC1CCC(NC(=O)c2n[nH]c(-c3cc(C)c4ncnn4c3)c2C(C)C)CC1 (centres unmarked) [Example 129]
Q. Cc1cc(-c2[nH]nc(C(=O)N(C)Cc3cccnc3)c2C(C)C)cn2ncnc12 [Example 17]
R. Cc1cc(-c2[nH]nc(C(=O)NCC3CN(C(C)C)CCO3)c2C(C)C)cn2ncnc12 (centres unmarked) [Example 141]
S. COc1cc(-c2[nH]nc(-c3ccc(C4CCN(C)CC4)cn3)c2C(C)C)cn2ncnc12 [Example 348]
# rank_down: sort by pIC50, max first Please list each label once, in the requested order.
P, R, Q, S
